Values from PubChem BioAssay (NCI)

Tested on: A549 NSCLC
Assay: NCI tumour cell line growth inhibition, 48 h
reported.metric: TGI

| structure.smiles | val |
| --- | --- |
| CC1(C)N=C(N)N=C(N)N1c1ccc(OCCCCOc2ccc(S(=O)(=O)F)cc2)c(Cl)c1 | 14.8 µM |

// query // map "c1ccc2c(c1)nc1n2CCCn2ccnc2-1" to recorded TGI (system: A549 NSCLC)
// result > 100 µM

// query Can you look up TGI on A549 NSCLC for "COc1cc(/C=C2\C[C@H]3[C@@H]4CC=C5C=C(N6CCCC6)CC[C@]5(C)[C@H]4CC[C@]3(C)C2=O)cc(OC)c1OC" ?
// result > 51.7 µM

// query What is its TGI for A549 NSCLC? Entry: "CC(=O)[CH-]C(=O)c1ccccc1.CC(=O)[CH-]C(=O)c1ccccc1.CC1(C)C2CCC1(C)C([O-])C2.CC1(C)C2CCC1(C)C([O-])C2.[Ti+4]"
// result > 100 µM

// query What TGI appears in the records for this compound with A549 NSCLC? "N[C@@H]1CCCC[C@H]1N.O=C([O-])C(=O)[O-].[Pt+4]"
// result > 84.1 µM
